Test system: Ruminococcus gnavus
Assay: Antimicrobial activity against Ruminococcus gnavus by Wadsworth agar dilution method
Format: functional
Settings: Mediterraneibacter gnavus
propertyLabel: MIC90
Be sure to follow the number with its unit.

// solved cases for MIC90 follow
CC(=O)Oc1ccccc1C(=O)Nc1ncc([N+](=O)[O-])s1 [NITAZOXANIDE] = 1 µg/mL
CO[C@H]1/C=C/O[C@@]2(C)Oc3c(C)c(O)c4c(O)c(c5c(nc6cc(C)ccn65)c4c3C2=O)NC(=O)/C(C)=C\C=C\[C@H](C)[C@H](O)[C@@H](C)[C@@H](O)[C@@H](C)[C@H](OC(C)=O)[C@@H]1C = 4 µg/mL
CN[C@H](CC(C)C)C(=O)N[C@H]1C(=O)N[C@@H](CC(N)=O)C(=O)N[C@H]2C(=O)N[C@H]3C(=O)N[C@H](C(=O)N[C@H](C(=O)O)c4cc(O)cc(O)c4-c4cc3ccc4O)[C@H](O)c3ccc(c(Cl)c3)Oc3cc2cc(c3O[C@@H]2O[C@H](CO)[C@@H](O)[C@H](O)[C@H]2O[C@H]2C[C@](C)(N)[C@H](O)[C@H](C)O2)Oc2ccc(cc2Cl)[C@H]1O = 1 µg/mL

Field: next compound
May I ask what MIC90 has been recorded for NC[C@@H]1O[C@H](O[C@H]2[C@@H](O)[C@H](O[C@@H]3[C@@H](O)[C@H](N)C[C@H](N)[C@H]3O[C@H]3O[C@H](CN)[C@@H](O)[C@H](O)[C@H]3N)O[C@@H]2CO)[C@H](N)[C@@H](O)[C@@H]1O ? 512 µg/mL

The reported measurements were obtained from ChEMBL document CHEMBL1275577.
